assay: Maximal plasma concentration in monkeys after 20 mg/kg oral dose; settings: cynomolgus monkey
experimental_readout: Cmax

[in] Tell me the measured Cmax of N=C(N)c1ccc(CNC(=O)[C@@H]2CCCN2C(=O)[C@H](NCC(=O)O)C(c2ccccc2)c2ccccc2)s1 , please.
[out] 2100 ng/mL

###

assay: Steady state volume of distribution (Vdss) was determined after intravenous dosing at 10 mg/kg in rat; type: ADME, organism-based; set-up: dose 10 mg/kg, route intravenous; conditions: in vivo, read-out: Vdss
Respond with true (1) for Vd values of 0.2 L/kg and above, false (0) for values below.

Would you please look over these solved cases?
1. COC(=O)N[C@@H](C(=O)N1CCC[C@H]1C(=O)NCc1ccc(C(=N)N)nc1)C(c1ccccc1)c1ccccc1 = false (0)
2. N=C(N)c1ccc(CNC(=O)[C@@H]2CCCN2C(=O)[C@H](NS(N)(=O)=O)C(c2ccccc2)c2ccccc2)cc1 = true (1)
3. N=C(N)c1ccc(CNC(=O)[C@@H]2CCCN2C(=O)[C@H](NCC(=O)O)C(c2ccccc2)c2ccccc2)s1 = true (1)
4. N=C(N)c1csc(CNC(=O)[C@@H]2CCCN2C(=O)[C@H](NCC(=O)O)C(c2ccccc2)c2ccccc2)n1 = false (0)

[in] Answer whether Vd of COC(=O)N[C@@H](C(=O)N1CCC[C@H]1C(=O)NCc1csc(C(=N)N)c1)C(c1ccccc1)c1ccccc1 is greater than or equal to 0.2 L/kg.
[out] true (1)

[in] Answer whether Vd of COC(=O)N[C@@H](C(=O)N1CCC[C@H]1C(=O)NCc1ccc(C(=N)N)s1)C(c1ccccc1)c1ccccc1 is greater than or equal to 0.2 L/kg.
[out] false (0)

[in] Answer whether Vd of N=C(N)c1ccc(CNC(=O)[C@@H]2CCCN2C(=O)[C@H](NS(N)(=O)=O)C(c2ccccc2)c2ccccc2)s1 is greater than or equal to 0.2 L/kg.
[out] true (1)

[in] Answer whether Vd of COC(=O)N[C@@H](C(=O)N1CCC[C@H]1C(=O)NCc1ccc(C(=N)N)cc1)C(c1ccccc1)c1ccccc1 is greater than or equal to 0.2 L/kg.
[out] false (0)

The measurements presented in this section are drawn from ChEMBL document CHEMBL1144934.
